These data points were gathered from paper PMC11851430.

# experimentalSystem: AURKA (Homo sapiens)
# Sequence (O14965 whole entry): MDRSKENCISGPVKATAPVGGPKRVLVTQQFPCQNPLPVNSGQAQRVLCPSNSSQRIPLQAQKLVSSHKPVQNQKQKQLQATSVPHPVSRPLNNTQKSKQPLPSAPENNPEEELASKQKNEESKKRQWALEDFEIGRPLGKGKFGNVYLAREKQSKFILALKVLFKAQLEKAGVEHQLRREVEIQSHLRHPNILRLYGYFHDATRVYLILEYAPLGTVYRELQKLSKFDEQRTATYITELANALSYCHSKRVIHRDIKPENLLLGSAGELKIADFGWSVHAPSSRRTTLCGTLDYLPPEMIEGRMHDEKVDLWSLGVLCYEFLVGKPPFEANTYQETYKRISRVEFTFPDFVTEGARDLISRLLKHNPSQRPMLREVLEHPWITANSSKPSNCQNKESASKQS
# testName: NanoBRET target engagement assay, intact and permeabilized cells
# statedConditions: AURKA permeabilized (IC50±sd)/μM, permeabilized cells, mean of duplicates, ^a values estimated by extrapolation
measure: IC50

[in] Item `CC(=O)N[C@H](C(=O)N1C[C@H](O)C[C@H]1C(=O)NCc1ccc(-c2scnc2C)cc1OCCOCCOCCOCCNC(=O)c1cc(Nc2cc(C3CC3)[nH]n2)nc(Nc2ccc(CC#N)cc2)n1)C(C)(C)C` has what recorded IC50?
[out] ~7.78 µM

[in] Field entry: `Cc1ncsc1-c1ccc(CNC(=O)[C@@H]2C[C@@H](O)CN2C(=O)[C@@H](NC(=O)CCOCCOCCNC(=O)c2cc(Nc3cc(C4CC4)[nH]n3)nc(Nc3ccc(CC#N)cc3)n2)C(C)(C)C)cc1`
[out] ~16.9 µM

[in] # iterate: `CC(C)(C)OC(=O)NCCCOCCOCCOCCCNC(=O)c1cc(Nc2cc(C3CC3)[nH]n2)nc(Nc2ccc(CC#N)cc2)n1`
[out] ~7.05 µM
